Source of measurements: PubChem BioAssay (NCI)

# System: K-562 leukemia
# METHOD: NCI-60 one-dose screen, 48 h
# EXPERIMENTAL CONTEXT: 10 µM unless noted
# Protocol: Cells are grown in 96 well plates and exposed to the test compound for 48 hours. Compounds are tested at a single concentration, which is 10^-5 M for most compounds. The reported endpoint is percent growth (GI% or GIPRCNT), where numbers from 0 - 100% represent growth inhibition, and numbers from -100% - 0 represent cell death. For example, a value of 40 represents 60% growth inhibition. A value of 0 means no net growth occurred over the course of the experiment. […]
The panel holds about 83,000 compounds, 20% with a hit somewhere; the sample as a whole holds those more often. The source made the active and inactive calls. Rule for the calls: active = growth percent below 10; inactive = the rest.
Respond with a class label; see true (1) (active), false (0) (inactive)

COMPOUND: CC(C)C[C@H](C(=O)N[C@@H](C)C(N)=O)N1CC=CCN(O)S1(=O)=O
GROUP LABEL: false (0)
//
COMPOUND: CC1=C(C(=O)OCC2CCN(C(=O)OC(C)(C)C)CC2)[C@H](c2cccc(C#N)c2)C2=C(CC(C)(C)CC2=O)N1
GROUP LABEL: false (0)
//
COMPOUND: COC(=O)c1c2c(c(C)[n+]([O-])c1C)C(=O)C=C(NCc1ccccc1)C2=O
GROUP LABEL: true (1)
//
COMPOUND: CC1CCCCN1CCCNC(=O)c1ccc2c(c1)sc1nc(-c3ccc(F)cc3)cn12 (stereo not given)
GROUP LABEL: false (0)

Below: the item to evaluate.
### Prompt # lookup: test call for CCN(CC)c1cc(C)c2cc(NC(=O)c3cccc(OC)c3)ccc2n1
### Response false (0)

###

# Tested on: NCI-H460 lung
# METHOD: NCI-60 one-dose screen, 48 h
# EXPERIMENTAL CONTEXT: 10 µM unless noted
About 83,000 compounds went through this panel and 20% of them were active in at least one assay; those are over-represented in the sample as a whole. Calls of active or inactive are those of the source. The calls were made as follows: active = growth percent below 10; inactive = the rest.
Log the outcome using a class from 1 (yes) (active), 0 (no) (inactive)

Reference set, count: 4
ITEM SMILES: COc1cc(/C=C/C(=O)c2ccc(Nc3nc(NCCO)nc(N4CCOCC4)n3)cc2)cc(OC)c1OC
TESTED TARGET: NCI-H460 lung
GROUP LABEL: 1 (yes)
--
ITEM SMILES: COc1ccc(C(=O)Nc2ccc3nc(N4CCCCC4)cc(C)c3c2)cc1OC
TESTED TARGET: NCI-H460 lung
GROUP LABEL: 0 (no)
--
ITEM SMILES: O=c1oc2ccc(Br)cc2c(=O)n1-c1ccc(Br)cc1F
TESTED TARGET: NCI-H460 lung
GROUP LABEL: 1 (yes)
--
ITEM SMILES: CCOC(=O)c1c(C=O)nc2ccccc2c1/C=C/c1ccc(Cl)cc1
TESTED TARGET: NCI-H460 lung
GROUP LABEL: 0 (no)

### Prompt Field: outcome | Entry: CCOC(=O)C1=CN(C)C=C(C(=O)OCC)C1c1cc(Br)c(OCC)c(OC)c1
### Response 0 (no)

###

# Tested on: MCF7 breast
# METHOD: NCI-60 one-dose screen, 48 h
# EXPERIMENTAL CONTEXT: 10 µM
Compounds without any hit were thinned out: in the full panel of roughly 83,000, 20% have a hit. Calls of active or inactive are those of the source. How the source made its calls: active means growth percent below 10; inactive means the rest.
Would you mind answering with one of these outcomes? True (active), False (inactive)

Illustrative cases are given below, each with its answer.
COMPOUND: COc1ccc(C2Nc3ncnc(N)c3N=C3c4ccccc4C(=O)C32)cc1 (configuration not stated)
GROUP LABEL: False

COMPOUND: COc1cc(C2C(C#N)=C(N)OC3=C2C(=O)c2ccccc2C3=O)cc(OC)c1OC (configuration not stated)
GROUP LABEL: False

COMPOUND: COC(=O)/C(CCC=C(C)C)=C1\[C@@H](OC(C)=O)C[C@@]2(C)[C@H]1C[C@@H](O)[C@H]1[C@@]3(C)CC[C@H](NCCO)[C@@H](C)[C@@H]3CC[C@@]12C
GROUP LABEL: False

COMPOUND: C=C1C(=O)O[C@H]2[C@H]1CC/C(COC(=O)/C=C\C(=O)O)=C\CC[C@@]1(C)O[C@@H]21
GROUP LABEL: False

COMPOUND: Cc1[nH]c2ccccc2c(=O)c1CC=C(Cl)Cl
GROUP LABEL: True

### Prompt // return assay outcome for O=NN(C(=O)NC1CCC(C(=O)O)CC1)C1CCC(C(=O)O)CC1 (configuration not stated)
### Response False

### Prompt Please give the result for O=C1c2cc(Br)ccc2Oc2cc([N+](=O)[O-])ccc2N1c1ccc(I)cc1F too.
### Response False

### Prompt Subsequent entry: Nc1ccc(-c2nn3c(CCC(=O)c4nc5ncccc5[nH]4)nnc3s2)c(O)c1
### Response False

###

# Test system: NCI-H23 lung
# METHOD: NCI-60 one-dose screen, 48 h (100 = growth as untreated, 0 = no growth, -100 = all killed)
# EXPERIMENTAL CONTEXT: 10 µM unless noted
Compounds without any hit were thinned out: in the full panel of roughly 83,000, 20% have a hit.
Listed compounds paired with reported growth
Please state the figure in %; there is no need to write the unit.

COMPOUND: O=c1cc(-c2ccccc2)oc2cc(OCc3cn(Cc4ccc(F)cc4)nn3)cc(OCc3cn(Cc4ccc(F)cc4)nn3)c12
READING UNIT: %
growth: 29.2

COMPOUND: COC(=O)/C(CCC=C(C)C)=C1\[C@@H](OC(C)=O)C[C@@]2(C)[C@H]1C[C@@H](O)[C@H]1[C@@]3(C)CC[C@H](NCc4ccccc4)[C@@H](C)[C@@H]3CC[C@@]12C
READING UNIT: %
growth: 81.4

COMPOUND: O=C(Nc1ccc(Cl)cc1F)c1cc(Br)ccc1O
READING UNIT: %
growth: 4.02

COMPOUND: Brc1ccc(Oc2ccc(Nc3ncnc4onc(-c5ccccc5)c34)cc2)cc1
READING UNIT: %
growth: 94.3

### Prompt Item COc1cc(/C=C2\CN(S(=O)(=O)c3ccccc3)C/C(=C\c3cc(CN4CCCC4)c(O)c(OC)c3)C2=O)cc(CN2CCCC2)c1O with NCI-H23 lung - growth?
### Response -57.8

### Prompt Same lookup for O=C(Nc1ccccc1O)c1ccc(Oc2cccc(C(=O)Nc3ccccc3O)c2)cc1 , please.
### Response 25.5

### Prompt Further, for N#Cc1c(N)nc2c(c1N)C(c1ccc(F)cc1)c1ccc(N)cc1O2 (centres undefined) ?
### Response 117

### Prompt Next compound: COC(=O)c1ccc(NC(=O)CSc2nc3ccccc3c(=O)n2-c2ccccc2)cc1
### Response 95.4

### Prompt Can you handle NC(CCc1nc2ccccc2c(=O)[nH]1)C(=O)O (centres undefined) next?
### Response 105

###

# Tested on: IGROV1 ovarian
# METHOD: NCI-60 one-dose screen, 48 h (100 = growth as untreated, 0 = no growth, -100 = all killed)
# EXPERIMENTAL CONTEXT: 10 µM unless noted
This is part of a sample that, as a whole, favours compounds with a hit. Of some 83,000 tested, about 20% had one in any assay.
Given measured growth, output Satisfied if it is greater than or equal to 90% and Not satisfied if not.

These solved cases illustrate the format of a correct answer.
COMPOUND: CCOC(=O)c1c(C=O)nc2ccccc2c1/C=C/c1ccc(Cl)cc1
GROUP LABEL: Not satisfied
--
COMPOUND: CC(=O)c1ccc2oc(=O)n(Cc3ccc(C#N)cc3)c(=O)c2c1
GROUP LABEL: Satisfied
--
COMPOUND: CCn1c(Cc2ccccc2Nc2c(Cl)cccc2Cl)nnc1SCC(=O)NN1C(=O)/C(=C/c2cccc(OC)c2OC)SC1=S
GROUP LABEL: Satisfied
--
COMPOUND: CNC(=O)c1cc(Oc2ccc(CC(=O)Nc3cc(C(C)(C)C)cn3C)cc2)ccn1
GROUP LABEL: Not satisfied
--
COMPOUND: O=C(Nc1ccccc1O)c1ccc(Oc2cccc(C(=O)Nc3ccccc3O)c2)cc1
GROUP LABEL: Not satisfied
--
COMPOUND: CN1CCN(c2nc(Nc3ccc(O)cc3)nc3ccccc23)CC1
GROUP LABEL: Not satisfied
--
COMPOUND: CCOc1cc2c(cc1OCC)C(c1cc(C)c(O)c(C)c1)NCC2 (stereo not given)
GROUP LABEL: Satisfied
--
COMPOUND: CN1C(=O)N(C)C2Nn3c(s/c(=C\c4ccc(Cl)cc4Cl)c3=O)=NC21 (stereo not given)
GROUP LABEL: Not satisfied

### Prompt Form field: growth at least 90%? Entry: O=c1c(-c2nc3ccccc3[nH]2)cc2ccccc2n1Cc1cn(Cc2ccccc2Cl)nn1
### Response Not satisfied

### Prompt Quick one: CC1CCCCN1CCCNC(=O)c1ccc2c(c1)sc1nc(-c3ccc(F)cc3)cn12 (stereo not given)
### Response Satisfied
